Ref: ChEMBL document CHEMBL1152431

System: Pseudomonas aeruginosa
ASSAY_TEXT: Antibacterial activity against Pseudomonas aeruginosa ATCC 27853 after 18 to 24 hrs by broth microdilution method
Type: functional
Below, each of the molecules is paired with its reported MIC value.
Answer format: numeric, µg/mL implied, no suffix.

Examples with answers:
MOLECULE: Cc1csc(-c2nc(COc3ccc(CCNC(=N)N)cc3)cs2)n1.O=C(O)C(F)(F)F
MEASURED_VALUE: 128
//
MOLECULE: Cc1csc(-c2nc(COc3c4cc(CCNC(=N)N)cc3Cc3cc(CCNC(=N)N)cc(c3O)Cc3cc(CCNC(=N)N)cc(c3OCc3csc(-c5nc(C)cs5)n3)Cc3cc(CCNC(=N)N)cc(c3O)C4)cs2)n1.O=C(O)C(F)(F)F
MEASURED_VALUE: 16
//
MOLECULE: Cc1cccc(-c2cccc(COc3ccc(CCNC(=N)N)cc3)n2)n1.O=C(O)C(F)(F)F
MEASURED_VALUE: 128
//
MOLECULE: N=C(N)NCCc1cc2c(O)c(c1)Cc1cc(CCNC(=N)N)cc(c1O)Cc1cc(CCNC(=N)N)cc(c1O)Cc1cc(CCNC(=N)N)cc(c1O)C2.O=C(O)C(F)(F)F
MEASURED_VALUE: 32
//
MOLECULE: N=C(N)c1ccc(OCCCCCCOc2ccc(C(=N)N)cc2)cc1.O=C(O)C(F)(F)F
MEASURED_VALUE: 32

MIC measured on Cc1ccc(-c2ccc(COc3c4cc(CCNC(=N)N)cc3Cc3cc(CCNC(=N)N)cc(c3O)Cc3cc(CCNC(=N)N)cc(c3OCc3ccc(-c5ccc(C)cn5)nc3)Cc3cc(CCNC(=N)N)cc(c3O)C4)cn2)nc1.O=C(O)C(F)(F)F = 32

MIC reported for this molecule N=C(N)NCCCCCCCCCCNC(=N)N.O=C(O)C(F)(F)F [SYNTHALIN A] : 128

Noted for Cc1ccc(-c2ccc(COc3ccc(CCNC(=N)N)cc3)cn2)nc1.O=C(O)C(F)(F)F : its MIC reads 128

// MIC value for Cc1cccc(-c2cccc(COc3c4cc(CCNC(=N)N)cc3Cc3cc(CCNC(=N)N)cc(c3O)Cc3cc(CCNC(=N)N)cc(c3OCc3cccc(-c5cccc(C)n5)n3)Cc3cc(CCNC(=N)N)cc(c3O)C4)n2)n1.O=C(O)C(F)(F)F : 16
